procedureSummary: in vitro
conditionLabel: human, MRC-5 cells (human embryonal lung fibroblasts)
measuredParameter: viability at 144 h (%)
# number only, unit % dropped from output

Please supply the value of reported viability at 144 h for the item CSCC[C@H](NC(=O)[C@H](CC(C)C)NC(=O)CNC(=O)[C@@H](NC(=O)[C@H](Cc1ccccc1)NC(=O)[C@H](Cc1ccccc1)NC(=O)[C@H](CC(=O)O)NC(=O)[C@H](Cc1c[nH]cn1)NC(=O)[C@H](CCSC)NC(=O)[C@@H](N)CC(=O)O)C(C)C)C(N)=O 100

* * *

procedureSummary: in vitro
conditionLabel: human, CEM-SS cells
measuredParameter: viability at 10 micrograms per ml (%)
Just the number please, in %, no unit attached.

Please supply the value of reported viability at 10 micrograms per ml for the item CSCC[C@H](NC(=O)[C@H](CC(C)C)NC(=O)CNC(=O)[C@@H](NC(=O)[C@H](Cc1ccccc1)NC(=O)[C@H](Cc1ccccc1)NC(=O)[C@H](CC(=O)O)NC(=O)[C@H](Cc1c[nH]cn1)NC(=O)[C@H](CCSC)NC(=O)[C@@H](N)CC(=O)O)C(C)C)C(N)=O 98.5

Data provenance: patent US20100204140A1
